assayTarget: 5-HT transporter (Rattus norvegicus, UniProt P31652)
Construct: synaptosomes of rat brain areas are freshly isolated; from tissue; host or cells: rat brain synaptosomes (P2 fraction) from marrow and pons
Sequence (P31652 whole entry): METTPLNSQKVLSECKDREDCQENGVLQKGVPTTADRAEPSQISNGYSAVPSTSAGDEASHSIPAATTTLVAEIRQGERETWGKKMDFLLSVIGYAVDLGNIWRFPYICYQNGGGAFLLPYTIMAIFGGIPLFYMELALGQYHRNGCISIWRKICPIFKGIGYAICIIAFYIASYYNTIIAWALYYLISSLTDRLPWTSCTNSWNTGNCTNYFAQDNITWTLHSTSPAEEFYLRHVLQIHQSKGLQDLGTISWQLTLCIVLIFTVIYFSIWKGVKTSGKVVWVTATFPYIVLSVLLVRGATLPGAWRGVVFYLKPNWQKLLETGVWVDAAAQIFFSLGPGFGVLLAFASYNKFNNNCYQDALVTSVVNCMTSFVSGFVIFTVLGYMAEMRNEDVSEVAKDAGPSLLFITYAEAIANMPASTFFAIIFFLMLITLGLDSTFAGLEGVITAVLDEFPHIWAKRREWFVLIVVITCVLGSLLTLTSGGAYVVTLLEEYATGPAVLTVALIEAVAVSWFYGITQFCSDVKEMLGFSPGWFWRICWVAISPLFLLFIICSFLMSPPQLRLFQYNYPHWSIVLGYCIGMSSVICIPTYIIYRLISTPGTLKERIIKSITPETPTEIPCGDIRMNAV
procedureText: Inhibition of 5-HT uptake in rat brain synaptosomes
Assay type: biochemical
conditionLabel: read-out: Uptake 5-HT, % inhibition; Table III; rat, 1 μM
Please go through the items and note down their inhibition at 1 µM.
Give bare numbers, in %.

Below, each entry is followed by its recorded inhibition at 1 µM result.
Value lookup for inhibition at 1 µM; key = N#Cc1ccccc1CN1C(=O)CNC12CCN(C(=O)C=Cc1ccccc1Cl)CC2 [Example 89] 43

Another molecule to look at: CSCCC1NC2(CCN(C(=O)c3ccco3)CC2)N(Cc2ccc(F)cc2)C1=O (centres unmarked) [Example 147] 45

Another molecule to look at: C=CCN1C(=O)C(CCSC)NC12CCN(C(=O)C(=O)OCC)CC2 (centres unmarked) [Example 261] 39

Another molecule to look at: C#CCN1C(=O)C(CC(C)C)NC12CCN(C(=O)c1ccc(OC(F)(F)F)cc1)CC2 (centres unmarked) [Example 234] 45

# context switch: different molecule, same inhibition at 1 µM
Value lookup for inhibition at 1 µM; key = CCOC(=O)CN1C(=O)C(Cc2ccccc2)NC12CCN(C(=O)CC(C)C)CC2 (centres unmarked) [Example 294] 53

* * *

Tested on: batrachotoxin (BTX) binding site of the sodium channel
procedureText: Affinity to the batrachotoxin (BTX) binding site of the sodium channel
conditionLabel: Table III; rat cerebrocortex synaptosomes; test concentration not given
Please go through the items and note down their BTX inhibition.
Numbers only.

Value lookup for BTX inhibition; key = CCCCC(=O)N1CCC2(CC1)NCC(=O)N2Cc1cccc(C#N)c1 [Example 268] 31

Another molecule to look at: C=CCCC(=O)N1CCC2(CC1)NCC(=O)N2Cc1ccccc1F [Example 287] 32

Another molecule to look at: CCOc1ccccc1C(=O)N1CCC2(CC1)NCC(=O)N2Cc1ccccc1F [Example 280] 30

Another molecule to look at: O=C(c1ccc(F)c(F)c1)N1CCC2(CC1)NCC(=O)N2CCOc1ccccc1 [Example 142] 32

# context switch: different molecule, same BTX inhibition
Value lookup for BTX inhibition; key = CCOC(=O)CN1C(=O)C(CC(C)C)NC12CCN(C(=O)CC(C)C)CC2 (centres unmarked) [Example 288] 32

* * *

assayTarget: 5-HT transporter (Rattus norvegicus, UniProt P31652)
Construct: synaptosomes of rat brain areas are freshly isolated; from tissue; host or cells: rat brain synaptosomes (P2 fraction) from marrow and pons
procedureText: Inhibition of 5-HT uptake in rat brain synaptosomes
Type: biochemical
conditionLabel: read-out: Uptake 5-HT, % inhibition; Table III; rat, 1 μM
assayMetric: inhibition at 1 µM (%)
Answers are plain numbers, in %.

Below, each entry is followed by its recorded inhibition at 1 µM result.
Value lookup for inhibition at 1 µM; key = Cc1cc(C)cc(CN2C(=O)C(CC(C)C)NC23CCN(C(=O)CN(C)C)CC3)c1 (centres unmarked) 43

Another compound to look at: Cc1nn(-c2ccccc2)nc1C(=O)N1CCC2(CC1)NC(Cc1ccccc1)C(=O)N2C (centres unmarked) 46

Another compound to look at: COC(=O)c1ccc(CN2C(=O)C(C(C)C)NC23CCN(C(=O)c2cccnc2SC)CC3)cc1 (centres unmarked) 32

Another compound to look at: CCOC(=O)CN1C(=O)C(Cc2ccccc2)NC12CCN(C(=O)C1CCC1)CC2 (centres unmarked) 70

Batch of 4 compounds: report inhibition at 1 µM for each.
1. CN1C(=O)C(Cc2ccccc2)NC12CCN(C(=O)c1ccc(C(F)(F)F)c(F)c1)CC2 (centres unmarked)
2. N#Cc1cccc(CN2C(=O)CNC23CCN(C(=O)c2ccccc2C(F)(F)F)CC3)c1
3. COc1cc(C(=O)N2CCC3(CC2)NCC(=O)N3Cc2cccc(C#N)c2)cc(OC)c1OC
4. CC(C)C1NC2(CCN(C(=O)c3c(F)cccc3Cl)CC2)NC1=O (centres unmarked)

1: 30; 2: 59; 3: 43; 4: 37

* * *

assayTarget: 5-HT transporter (Rattus norvegicus, UniProt P31652)
Construct: synaptosomes of rat brain areas are freshly isolated; from tissue; host or cells: rat brain synaptosomes (P2 fraction) from marrow and pons
procedureText: Inhibition of 5-HT uptake in rat brain synaptosomes
Format: biochemical
conditionLabel: read-out: Uptake 5-HT, % inhibition; Table III; rat, 1 μM
Please go through the items and note down their inhibition at 1 µM.
Numbers only, in %.

Below, each entry is followed by its recorded inhibition at 1 µM result.
Short answer please: inhibition at 1 µM, 5-HT transporter (Rattus norvegicus, UniProt P31652), entry CCC(CC)C(=O)N1CCC2(CC1)NCC(=O)N2Cc1ccccc1C#N 75

Another compound to look at: COc1cccc(C(=O)N2CCC3(CC2)NCC(=O)N3Cc2ccccc2F)c1 49

Another compound to look at: CCCc1ccc(C(=O)N2CCC3(CC2)NC(CC(C)C)C(=O)N3Cc2c(Cl)cccc2Cl)cc1 (centres unmarked) 33

Another compound to look at: Cc1nc(C(F)(F)F)ccc1C(=O)N1CCC2(CC1)NC(C(C)C)C(=O)N2CCOc1ccccc1 (centres unmarked) 52

Batch of 8 compounds: report inhibition at 1 µM for each.
1. CC(C)C1NC2(CCN(C(=O)c3cccnc3Cl)CC2)N(Cc2ccccc2)C1=O (centres unmarked)
2. Cc1cc(C(=O)N2CCC3(CC2)NC(=O)C(C(C)C)N3)ccc1Br (centres unmarked)
3. CC(C)C1NC2(CCN(C(=O)c3ccco3)CC2)N(Cc2ccccc2)C1=O (centres unmarked)
4. CC(C)(C)CC(=O)N1CCC2(CC1)NC(=O)C(Cc1ccccc1)N2 (centres unmarked)
5. O=C(CCCOc1ccccc1)N1CCC2(CC1)NC(Cc1ccccc1)C(=O)N2Cc1ccccc1 (centres unmarked)
6. CCCc1c(C(=O)N2CCC3(CC2)NC(Cc2ccccc2)C(=O)N3CC(=O)OCC)cnn1-c1ccccc1 (centres unmarked)
7. CCCCN1C(=O)C(Cc2ccccc2)NC12CCN(C(=O)c1ccccn1)CC2 (centres unmarked)
8. Cc1onc(-c2c(F)cccc2Cl)c1C(=O)N1CCC2(CC1)NC(=O)C(Cc1ccccc1)N2 (centres unmarked)

[64, 32, 32, 33, 69, 85, 56, 30]

* * *

assayTarget: 5-HT transporter (Rattus norvegicus)
Construct: synaptosomes of rat brain areas are freshly isolated; from tissue; host or cells: rat brain synaptosomes (P2 fraction) from marrow and pons
procedureText: Inhibition of 5-HT uptake in rat brain synaptosomes
Format: biochemical
conditionLabel: read-out: Uptake 5-HT, % inhibition; Table III; rat, 1 μM
assayMetric: inhibition at 1 µM (%)
Numbers only, in %.

Below, each entry is followed by its recorded inhibition at 1 µM result.
Value lookup for inhibition at 1 µM; key = COCCOCC(=O)N1CCC2(CC1)NC(CCSC)C(=O)N2Cc1ccccc1C#N (centres unmarked) 53

Another molecule to look at: COc1ccccc1C(=O)N1CCC2(CC1)NC(Cc1ccccc1)C(=O)N2Cc1ccccc1F (centres unmarked) 97

Another molecule to look at: CCOC(=O)CN1C(=O)C(Cc2ccccc2)NC12CCN(C(=O)c1ccc(S(N)(=O)=O)cc1)CC2 (centres unmarked) 95

Batch of 4 molecules: report inhibition at 1 µM for each.
1. COC(=O)c1ccc(CN2C(=O)CNC23CCN(C(=O)c2ccc(C(C)(C)C)cc2)CC3)cc1
2. CCCCN1C(=O)C(Cc2ccccc2)NC12CCN(C(=O)c1ccc(I)cc1)CC2 (centres unmarked)
3. CCOC(=O)CCC(=O)N1CCC2(CC1)NCC(=O)N2Cc1ccccc1F
4. CCOC(=O)CN1C(=O)C(Cc2ccccc2)NC12CCN(C(=O)c1ccccc1F)CC2 (centres unmarked)

1: 37; 2: 76; 3: 31; 4: 61

Value lookup for inhibition at 1 µM; key = CCCCN1C(=O)C(Cc2ccccc2)NC12CCN(C(=O)c1cc(F)ccc1C(F)(F)F)CC2 (centres unmarked) 69

* * *

assayTarget: 5-HT transporter (Rattus norvegicus)
Construct: synaptosomes of rat brain areas are freshly isolated; from tissue; host or cells: rat brain synaptosomes (P2 fraction) from marrow and pons
procedureText: Inhibition of 5-HT uptake in rat brain synaptosomes
Type: biochemical
conditionLabel: read-out: Uptake 5-HT, % inhibition; Table III; rat, 1 μM
assayMetric: inhibition at 1 µM (%)
One number for each entry, in %.

Below, each entry is followed by its recorded inhibition at 1 µM result.
Value lookup for inhibition at 1 µM; key = C#CCN1C(=O)C(CC(C)C)NC12CCN(C(=O)COc1ccc(Cl)cc1)CC2 (centres unmarked) [Example 104] 48

Another compound to look at: C=CCN1C(=O)C(CCSC)NC12CCN(C(=O)c1cnn(-c3ccccc3)c1CCC)CC2 (centres unmarked) [Example 323] 33

Another compound to look at: CCCCN1C(=O)C(Cc2ccccc2)NC12CCN(C(=O)c1cc(C(F)(F)F)ccc1C(F)(F)F)CC2 (centres unmarked) [Example 155] 74

Batch of 4 compounds: report inhibition at 1 µM for each.
1. CCOC(=O)CN1C(=O)C(CCSC)NC12CCN(C(=O)CC)CC2 (centres unmarked) [Example 263]
2. Cc1nnsc1C(=O)N1CCC2(CC1)NCC(=O)N2Cc1ccccc1 [Example 88]
3. COC(=O)c1ccc(CN2C(=O)CNC23CCN(C(=O)c2cc(C(C)(C)C)oc2C)CC3)cc1 [Example 292]
4. C=CCN1C(=O)C(C(C)C)NC12CCN(C(=O)Cc1cccc(OC)c1)CC2 (centres unmarked) [Example 296]

1: 50; 2: 34; 3: 40; 4: 30
